System: SK-MEL-5 melanoma
method: NCI tumour cell line growth inhibition, 48 h

compound	TGI
CCOC(=O)C(=O)Nc1nc2ccc(OC)cc2s1	> 100 µM
CSC1=C(C)C(/C=N/Nc2ccc([N+](=O)[O-])cc2)=C(C)N(c2ccccc2)S1(=O)=O	> 100 µM
N#CC(c1cc(Cl)ncn1)c1nc2cc(C(F)(F)F)ccc2s1 (stereo not drawn)	26.2 µM

----------
System: SK-OV-3 ovarian
method: NCI tumour cell line growth inhibition, 48 h; in the data active = GI50 below about 0.43 µM; inactive = the rest
Classes used: 1 (yes) for active, 0 (no) for inactive

compound	systemTested	assignedLabel
CN(Cc1cnc2nc(N)nc(N)c2n1)c1c(Cl)cc(C(=O)NC(CCC(=O)O)C(=O)O)cc1Br (stereo not given)	SK-OV-3 ovarian	1 (yes)
NCC[PH+](c1ccccc1)c1ccccc1.NCC[PH+](c1ccccc1)c1ccccc1.[Cl-].[Pt+4]	SK-OV-3 ovarian	0 (no)
COc1ccc(C2CC(c3cccc(Nc4ccncc4)c3)=NN2c2ccccc2)cc1 (stereo not given)	SK-OV-3 ovarian	0 (no)
O=C(Cc1csc2nc(-c3ccc(Br)cc3)cn12)N/N=C/c1ccccc1O	SK-OV-3 ovarian	0 (no)
O=C([CH-]C(=O)c1ccccc1)c1ccccc1.[CH2-]C.[CH2-]C.[Tl+3]	SK-OV-3 ovarian	0 (no)

----------
Tested on: U251 CNS
method: NCI tumour cell line growth inhibition, 48 h

molSmiles	TGI
CCOC(=O)C(=O)Nc1nc2ccc(OC)cc2s1	> 100 µM
COC(=O)c1sc2c(Cl)c(Cl)sc2c1Cl	> 100 µM
c1ccc(-c2nc3ccccc3[nH]2)c(OCCCCCOc2ccccc2-c2nc3ccccc3[nH]2)c1	25.6 µM

----------
The entries below come with measured TGI values attached.
Test system: DMS 273 small cell lung
method: NCI tumour cell line growth inhibition, 48 h
observable: TGI

compound	observable	assayValue
O=S1(=O)CS(=O)(=O)OCCCCCO1	TGI	> 100 µM
COC(=O)C1C(=O)NC2(C)CC1c1ccccc1O2 (stereo not drawn)	TGI	> 100 µM
CCOc1ccc(N=Nc2c(-c3ccccc3)nn(C(=O)CC(=O)Nc3ccccc3Cl)c2-c2ccccc2)cc1	TGI	> 100 µM

----------
System: 786-0 renal
method: NCI tumour cell line growth inhibition, 48 h

molecule	TGI
Cc1c(C(=O)/C=C/c2ccc3c(c2)OCO3)[n+](=O)c2ccccc2n1[O-]	> 100 µM
CC(C)(C)c1cc(C(C)(C)C)c2sc(=O)oc2c1O	38.1 µM
CNC(=O)N(CCCCC(NC(C)=O)C(=O)NCc1ccccc1)Cc1ccccc1 (stereo unspecified)	> 100 µM
CC1CC(C)(C)CC(OCCN2CCCCC2)(c2ccccc2)C1 (stereo unspecified)	22.6 µM
CN1CCC(C(=O)Nc2n[nH]c3nnc(-c4ccccc4)cc23)CC1	> 25 µM
Cc1c(-c2ccccc2)oc(=O)c2ccccc12	51.2 µM
O=C(Nc1nnc(-c2ccccc2)o1)C(SC(=S)N1CCCC1)c1ccccc1 (stereo unspecified)	> 100 µM
COc1cc(-c2ccc[nH]2)[nH]c1/C=C1\N=C(C)C(C(=O)NC(C)C)=C1C	11.7 µM
COc1cc2c(cc1OCCN1CCN(CCOc3cc4c(cc3OC)C(=O)N3CCC[C@H]3C=N4)CC1)N=C[C@@H]1CCCN1C2=O	> 76.8 µM
c1ccc(CN2CCC(CNc3ncnc4ccccc34)C2)cc1 (stereo unspecified)	> 100 µM
COc1cc2ccc(C(C)NCC#N)cc2cc1OC (stereo unspecified)	> 100 µM

The measurements presented in this section are drawn from PubChem BioAssay (NCI).
